Attribution: ChEMBL document CHEMBL1131521

target: Platelet-derived growth factor receptor beta (Mus musculus); assay: Inhibition of phosphorylation of a random glutamate/tyrosine copolymer in lysates of transfected Sf9 insect cells overexpressing mouse platelet-derived growth factor receptor beta
pIC50: −log10 of the molar value.
endpoint: pIC50

// query pIC50 value for entry `Cc1ccc2ncn(-c3ccccc3)c2c1` 4.40

// query pIC50 value for entry `NC(=O)c1cccc2ncn(-c3ccccc3)c12` < 4.30

// query pIC50 value for entry `Cc1ccc(-n2cnc3ccccc32)cc1` < 4.30

// query pIC50 value for entry `N#Cc1cccc(-n2cnc3ccccc32)c1` < 4.30

// query pIC50 value for entry `O=[N+]([O-])c1cccc(-n2cnc3ccccc32)c1` 4.80

// query pIC50 value for entry `Cc1cccc2c1ncn2-c1ccccc1` < 4.30

// query pIC50 value for entry `O=[N+]([O-])c1cccc2ncn(-c3ccccc3)c12` < 4.30

// query pIC50 value for entry `Nc1ccccc1-n1cnc2ccccc21` < 4.30

// query pIC50 value for entry `Nc1ccc2ncn(-c3ccccc3)c2c1` 4.64

// query pIC50 value for entry `c1ccc(-n2cnc3ccccc32)nc1` < 4.30

// query pIC50 value for entry `Cc1cccc(-n2cnc3ccccc32)c1` 4.55

// query pIC50 value for entry `Clc1cccc(-n2cnc3ccccc32)c1` 4.33

// query pIC50 value for entry `COC(=O)c1cccc2c1ncn2-c1ccccc1` < 4.30

// query pIC50 value for entry `Oc1nc2ccccc2n1-c1ccccc1` < 4.30

// query pIC50 value for entry `COc1ccccc1-n1cnc2ccccc21` < 4.30

// query pIC50 value for entry `NC(=O)c1cccc(-n2cnc3ccccc32)c1` < 4.30

// query pIC50 value for entry `CC(=O)c1ccccc1-n1cnc2ccccc21` < 4.30

// query pIC50 value for entry `NC(=O)c1ccccc1-n1cnc2ccccc21` < 4.30

// query pIC50 value for entry `O=[N+]([O-])c1ccccc1-n1cnc2ccccc21` < 4.30

// query pIC50 value for entry `CCOC(=O)c1ccccc1-n1cnc2ccccc21` < 4.30

// query pIC50 value for entry `Oc1ccccc1-n1cnc2ccccc21` < 4.30

// query pIC50 value for entry `Nc1cccc2ncn(-c3ccccc3)c12` < 4.30

// query pIC50 value for entry `NC(=O)c1ccc2c(c1)ncn2-c1ccccc1` 4.80

// query pIC50 value for entry `Clc1ccc(-n2cnc3ccccc32)cc1` 4.30

// query pIC50 value for entry `O=C(O)c1cccc2ncn(-c3ccccc3)c12` < 4.30

// query pIC50 value for entry `N#Cc1ccccc1-n1cnc2ccccc21` < 4.30

// query pIC50 value for entry `COC(=O)c1ccc2c(c1)ncn2-c1ccccc1` 6.08

// query pIC50 value for entry `COc1cccc2ncn(-c3ccccc3)c12` 4.43

// query pIC50 value for entry `COc1cccc2c1ncn2-c1ccccc1` 4.30

// query pIC50 value for entry `CC(=O)c1ccc(-n2cnc3ccccc32)cc1` 4.62

// query pIC50 value for entry `c1ccc(-c2nc3ccccc3[nH]2)cc1` < 4.30

// query pIC50 value for entry `O=[N+]([O-])c1ccc2c(c1)ncn2-c1ccccc1` 4.80

// query pIC50 value for entry `Cc1nc2ccccc2n1-c1ccccc1` < 4.30

// query pIC50 value for entry `Nc1cccc2c1ncn2-c1ccccc1` < 4.30

// query pIC50 value for entry `O=Cc1ccccc1-n1cnc2ccccc21` < 4.30

// query pIC50 value for entry `COC(=O)c1cccc2ncn(-c3ccccc3)c12` < 4.30

// query pIC50 value for entry `CCOC(=O)c1cccc(-n2cnc3ccccc32)c1` < 4.30

// query pIC50 value for entry `c1cncc(-n2cnc3ccccc32)c1` < 4.30

// query pIC50 value for entry `O=C(O)c1ccccc1-n1cnc2ccccc21` < 4.30

// query pIC50 value for entry `NC(=O)c1cccc2c1ncn2-c1ccccc1` < 4.30

// query pIC50 value for entry `O=C(O)c1ccc(-n2cnc3ccccc32)cc1` < 4.30

// query pIC50 value for entry `O=C(O)c1ccc2ncn(-c3ccccc3)c2c1` 4.30

// query pIC50 value for entry `NC(=O)c1ccc(-n2cnc3ccccc32)cc1` 4.64

// query pIC50 value for entry `Clc1cccc2c1ncn2-c1ccccc1` < 4.30

// query pIC50 value for entry `c1ccc2c(c1)ncn2-c1ccncc1` 4.92

// query pIC50 value for entry `Cc1ccccc1-n1cnc2ccccc21` < 4.30

// query pIC50 value for entry `O=[N+]([O-])c1cccc2c1ncn2-c1ccccc1` < 4.30

// query pIC50 value for entry `Clc1cccc2ncn(-c3ccccc3)c12` < 4.30

* * *

biological target: Platelet-derived growth factor receptor beta (Mus musculus, UniProt P05622); experiment: Inhibition of phosphorylation of a random glutamate/tyrosine copolymer in lysates of transfected Sf9 insect cells overexpressing mouse platelet-derived growth factor receptor beta
Sequence (P05622 whole entry): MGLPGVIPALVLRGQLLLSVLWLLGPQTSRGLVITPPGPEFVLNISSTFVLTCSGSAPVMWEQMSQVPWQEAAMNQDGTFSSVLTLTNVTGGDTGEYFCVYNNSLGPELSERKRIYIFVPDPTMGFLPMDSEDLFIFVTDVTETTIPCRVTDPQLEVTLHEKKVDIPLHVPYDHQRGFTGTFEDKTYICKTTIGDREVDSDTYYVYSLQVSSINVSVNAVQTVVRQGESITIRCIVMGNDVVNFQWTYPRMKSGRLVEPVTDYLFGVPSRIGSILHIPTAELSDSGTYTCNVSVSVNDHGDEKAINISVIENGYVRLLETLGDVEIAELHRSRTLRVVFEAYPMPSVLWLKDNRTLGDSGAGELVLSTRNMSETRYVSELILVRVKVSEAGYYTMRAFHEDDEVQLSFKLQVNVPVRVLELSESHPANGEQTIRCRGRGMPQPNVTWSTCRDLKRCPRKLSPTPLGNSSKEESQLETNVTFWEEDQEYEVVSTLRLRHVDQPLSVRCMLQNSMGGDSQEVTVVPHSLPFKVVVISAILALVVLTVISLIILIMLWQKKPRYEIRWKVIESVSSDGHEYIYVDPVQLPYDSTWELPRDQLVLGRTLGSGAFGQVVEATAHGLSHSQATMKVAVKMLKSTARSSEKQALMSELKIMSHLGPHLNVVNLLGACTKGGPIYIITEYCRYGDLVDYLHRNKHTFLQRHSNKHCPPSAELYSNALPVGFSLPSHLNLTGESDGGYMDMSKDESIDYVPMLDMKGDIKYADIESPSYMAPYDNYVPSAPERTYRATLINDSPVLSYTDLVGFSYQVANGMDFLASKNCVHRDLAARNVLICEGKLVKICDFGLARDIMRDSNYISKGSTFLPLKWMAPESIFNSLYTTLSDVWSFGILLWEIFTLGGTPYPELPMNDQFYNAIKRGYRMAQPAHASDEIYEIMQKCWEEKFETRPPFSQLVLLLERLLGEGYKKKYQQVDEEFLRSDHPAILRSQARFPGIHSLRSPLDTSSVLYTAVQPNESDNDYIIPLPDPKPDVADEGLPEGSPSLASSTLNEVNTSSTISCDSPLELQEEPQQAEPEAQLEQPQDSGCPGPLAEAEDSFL
pIC50: −log10 of the molar value.
endpoint: pIC50

// query pIC50 value for entry `O=C(c1ccccc1)n1cnc2ccccc21` < 4.30

// query pIC50 value for entry `Clc1ccccc1-n1cnc2ccccc21` < 4.30

// query pIC50 value for entry `c1ccc(C2=Nc3ccccc3NCC2)cc1` < 4.30
